FYI, the data here is from patent US11053204B2.

Tested on: Canada thistle (Cirsium arvense)
measurement protocol: Test C postemergence, plant response rating
Assay type: in vivo
details: 31 g ai/ha, scale 0 to 100
# Plant response rating, Canada Thistle annotations

{"compound": "CCCC(=O)c1c(Br)cccc1Oc1ncc(Cl)cn1", "Plant response rating, Canada Thistle": 75}
{"compound": "N#CC(CCCC(F)(F)F)c1ccccc1Oc1ncc(Cl)cn1 (centres unmarked)", "Plant response rating, Canada Thistle": 60}
{"compound": "O=C(CCCC(F)(F)F)c1c(Oc2ncc(Cl)cn2)cccc1C(F)(F)F", "Plant response rating, Canada Thistle": 85}
{"compound": "O=C(CCCC(F)(F)F)c1c(Cl)cccc1Oc1ncc(Cl)cn1", "Plant response rating, Canada Thistle": 85}

Next item in the queue.
Ask | Report its Plant response rating, Canada Thistle with Canada thistle (Cirsium arvense) as the test system: O=C(CCC(F)(F)C(F)(F)F)c1c(Br)cccc1Oc1ncc(Cl)cn1
Reply | 90

* * *

Test system: crabgrass, large (large crabgrass, Digitaria sanguinalis)
measurement protocol: Test C postemergence, plant response rating
Assay type: in vivo
details: 16 g ai/ha, scale of 0 to 100
# Plant response rating, Crabgrass, Large annotations
# output: bare number, no unit

{"smiles record": "O=C(CCC(F)(F)F)c1c(Br)cccc1Oc1ncc(Cl)cn1", "Plant response rating, Crabgrass, Large": 20}
{"smiles record": "N#Cc1cccc(Oc2ncc(Cl)cn2)c1COCCC(F)(F)F", "Plant response rating, Crabgrass, Large": 10}
{"smiles record": "CCCCC(=O)c1c(Br)cccc1Oc1ncc(Cl)cn1", "Plant response rating, Crabgrass, Large": 10}
{"smiles record": "O=C(CCCC(F)(F)F)c1c(Cl)cccc1Oc1ncc(Cl)cn1", "Plant response rating, Crabgrass, Large": 5}

Next item in the queue.
Ask | Supply reported Plant response rating, Crabgrass, Large belonging to this compound: FC(F)(F)CCCCc1c(Cl)cccc1Oc1ncc(Cl)cn1
Reply | 10

* * *

System: wheat (winter wheat, Triticum aestivum)
measurement protocol: Test C postemergence, plant response rating
Format: in vivo
details: 16 g ai/ha, scale of 0 to 100
recorded endpoint: Plant response rating, Wheat
# output: bare number, no unit

Sample records with Plant response rating, Wheat:
{"smiles record": "O=C(CCCC(F)(F)F)c1c(Br)cccc1Oc1ncc(Cl)cn1", "recorded endpoint": "Plant response rating, Wheat", "value measured": 0}
{"smiles record": "N#Cc1cccc(Oc2ncc(Cl)cn2)c1COCCC(F)(F)F", "recorded endpoint": "Plant response rating, Wheat", "value measured": 0}
{"smiles record": "CCCCC(=O)c1c(Oc2ncc(Cl)cn2)cccc1C(F)(F)F", "recorded endpoint": "Plant response rating, Wheat", "value measured": 10}

Ask | Supply reported Plant response rating, Wheat belonging to this compound: O=C(CCC(F)(F)C(F)(F)F)c1c(Br)cccc1Oc1ncc(Cl)cn1
Reply | 5

Ask | Supply reported Plant response rating, Wheat belonging to this compound: FC(F)(F)CCCc1c(Br)cccc1Oc1ncc(Cl)cn1
Reply | 0

* * *

# Pigweed plant response rating (0 to 100 scale) annotations
Tested on: pigweed (Amaranthus retroflexus)
measurement protocol: Test A postemergence, visual injury rating
Format: in vivo
details: 125 g ai/ha, 0 is no effect, 100 is complete control
# output: bare number, no unit

Sample records with Pigweed plant response rating (0 to 100 scale):
{"compound": "O=C(OCCCl)c1c(Br)cccc1Oc1ncc(Cl)cn1", "value measured": 100}
{"compound": "N#CCOC(=O)c1c(Br)cccc1Oc1ncc(Cl)cn1", "value measured": 70}
{"compound": "O=C(OCC(F)(F)F)c1c(F)cccc1Oc1ncc(Cl)cn1", "value measured": 20}
{"compound": "O=C(OC(CCl)CCl)c1c(Br)cccc1Oc1ncc(Cl)cn1", "value measured": 60}

Ask | Supply reported Pigweed plant response rating (0 to 100 scale) belonging to this compound: O=C(OCC(Cl)(Cl)Cl)c1c(Br)cccc1Oc1ncc(Cl)cn1
Reply | 100

Ask | Supply reported Pigweed plant response rating (0 to 100 scale) belonging to this compound: CC(CN(C)C(=O)c1c(Br)cccc1Oc1ncc(Cl)cn1)C(F)(F)F (stereo not shown)
Reply | 10

Ask | Supply reported Pigweed plant response rating (0 to 100 scale) belonging to this compound: O=C(OCCC(F)(F)F)c1c(F)cccc1Oc1ncc(Br)cn1
Reply | 90

* * *

System: field violet (Viola arvensis)
measurement protocol: Test C postemergence, plant response rating
Assay type: in vivo
details: 62 g ai/ha, scale 0 to 100 (0 no effect, 100 complete control)
recorded endpoint: Field Violet plant response rating

{"smiles record": "CCCCC(=O)c1c(Oc2ncc(Cl)cn2)cccc1C(F)(F)F", "value measured": 95}
{"smiles record": "O=C(CCC(F)(F)C(F)(F)F)c1c(Br)cccc1Oc1ncc(Cl)cn1", "value measured": 95}
{"smiles record": "FC(F)(F)CCCc1c(Br)cccc1Oc1ncc(Cl)cn1", "value measured": 100}
{"smiles record": "O=C(CCCC(F)(F)F)c1c(Cl)cccc1Oc1ncc(Cl)cn1", "value measured": 98}
{"smiles record": "O=C(CCCCC(F)(F)F)c1c(Br)cccc1Oc1ncc(Cl)cn1", "value measured": 90}

Next item in the queue.
Ask | Supply reported Field Violet plant response rating belonging to this compound: O=C(CCC(F)(F)F)c1c(Cl)cccc1Oc1ncc(Cl)cn1
Reply | 98

* * *

System: crabgrass, large (large crabgrass, Digitaria sanguinalis)
measurement protocol: Test C postemergence, plant response rating
Type: in vivo
details: 125 g ai/ha, scale 0 to 100 (0 no effect, 100 complete control)
Each entry gets N if its Crabgrass, Large plant response rating stays under 40, and Y if its Crabgrass, Large plant response rating is 40 or above.

{"smiles record": "CCCC(=O)c1c(Oc2ncc(Cl)cn2)cccc1C(F)(F)F", "system under test": "crabgrass, large (large crabgrass, Digitaria sanguinalis)", "assigned class": "N"}

Ask | Could you verify whether the entry O=C(CCCC(F)(F)F)c1c(Cl)cccc1Oc1ncc(Cl)cn1 shows Crabgrass, Large plant response rating of no less than 40?
Reply | N

Ask | Could you verify whether the entry O=C(CCC(F)(F)F)c1c(Br)cccc1Oc1ncc(Cl)cn1 shows Crabgrass, Large plant response rating of no less than 40?
Reply | N

Ask | Could you verify whether the entry O=C(CCCCC(F)(F)F)c1c(Br)cccc1Oc1ncc(Cl)cn1 shows Crabgrass, Large plant response rating of no less than 40?
Reply | N

Ask | Could you verify whether the entry CCCCC(=O)c1c(Br)cccc1Oc1ncc(Cl)cn1 shows Crabgrass, Large plant response rating of no less than 40?
Reply | Y

Ask | Could you verify whether the entry FC(F)(F)CCCCc1c(Cl)cccc1Oc1ncc(Cl)cn1 shows Crabgrass, Large plant response rating of no less than 40?
Reply | Y

Ask | Could you verify whether the entry O=C(CCCC(F)(F)F)c1c(Br)cccc1Oc1ncc(Cl)cn1 shows Crabgrass, Large plant response rating of no less than 40?
Reply | N

Ask | Could you verify whether the entry O=C(OCCC(F)(F)F)c1c(Br)cccc1Oc1ncc(Br)cn1 shows Crabgrass, Large plant response rating of no less than 40?
Reply | N

Ask | Could you verify whether the entry N#Cc1cccc(Oc2ncc(Cl)cn2)c1COCCC(F)(F)F shows Crabgrass, Large plant response rating of no less than 40?
Reply | N

* * *

# Plant response rating, Buckwheat, Wild annotations
Tested on: buckwheat, wild (wild buckwheat, Polygonum convolvulus)
measurement protocol: Test C postemergence, plant response rating
Type: in vivo
details: 31 g ai/ha, scale 0 to 100
# output: bare number, no unit

Sample records with Plant response rating, Buckwheat, Wild:
{"compound": "FC(F)(F)CCCCc1c(Br)cccc1Oc1ncc(Cl)cn1 [Compound 138]", "system under test": "buckwheat, wild (wild buckwheat, Polygonum convolvulus)", "Plant response rating, Buckwheat, Wild": 80}
{"compound": "CCCC(=O)c1c(Br)cccc1Oc1ncc(Cl)cn1 [Compound 75]", "system under test": "buckwheat, wild (wild buckwheat, Polygonum convolvulus)", "Plant response rating, Buckwheat, Wild": 60}

Ask | Supply reported Plant response rating, Buckwheat, Wild belonging to this compound: O=C(CCCC(F)(F)F)c1c(Cl)cccc1Oc1ncc(Cl)cn1 [Compound 143]
Reply | 85

Ask | Supply reported Plant response rating, Buckwheat, Wild belonging to this compound: O=C(CCCCC(F)(F)F)c1c(Br)cccc1Oc1ncc(Cl)cn1 [Compound 82]
Reply | 70

* * *

Test system: ragweed (common ragweed, Ambrosia elatior)
measurement protocol: Test A postemergence, visual injury rating
Type: in vivo
details: 31 g ai/ha, 0 to 100 scale, 0 is no effect, 100 is complete control, approximately 10 days
recorded endpoint: Ragweed plant response rating
# output: bare number, no unit

{"compound": "CC(=NOC(C)C)c1c(C#N)cccc1Oc1ncc(Cl)cn1", "system under test": "ragweed (common ragweed, Ambrosia elatior)", "Ragweed plant response rating": 0}
{"compound": "N#Cc1cccc(Oc2ncc(Cl)cn2)c1COCCC(F)(F)F", "system under test": "ragweed (common ragweed, Ambrosia elatior)", "Ragweed plant response rating": 10}
{"compound": "O=C(OCCC(F)(F)F)c1cc(C(F)(F)F)ccc1Oc1ncc(Cl)cn1", "system under test": "ragweed (common ragweed, Ambrosia elatior)", "Ragweed plant response rating": 0}
{"compound": "O=C(OC1CCCC1)c1c(Br)cccc1Oc1ncc(Cl)cn1", "system under test": "ragweed (common ragweed, Ambrosia elatior)", "Ragweed plant response rating": 0}
{"compound": "CCCC(C#N)c1c(Br)cccc1Oc1ncc(Cl)cn1 (stereo not drawn)", "system under test": "ragweed (common ragweed, Ambrosia elatior)", "Ragweed plant response rating": 0}

Ask | Supply reported Ragweed plant response rating belonging to this compound: C=C(Cl)COC(=O)c1c(Br)cccc1Oc1ncc(Cl)cn1
Reply | 0

Ask | Supply reported Ragweed plant response rating belonging to this compound: CC(=NOCCC(F)(F)F)c1c(Br)cccc1Oc1ncc(Cl)cn1
Reply | 0

Ask | Supply reported Ragweed plant response rating belonging to this compound: O=C(NCCC(F)(F)F)c1c(Br)cccc1Oc1ncc(Cl)cn1
Reply | 0

Ask | Supply reported Ragweed plant response rating belonging to this compound: O=C(CCCCC(F)(F)F)c1c(Br)cccc1Oc1ncc(Cl)cn1
Reply | 40
